tested on: HepG2 cells (hepatocellular carcinoma); test: General cytotoxicity on HepG2 cells (CC50; therapeutic index CC50 HepG2/IC50 Mino); format: cell-based; details: Table 10; therapeutic index
metric.name: CC50 (HepG2)/IC50 (Mino)
// no unit, no text: just the number

Examples from the recorded data:
- C=CC(=O)N1CC(n2nc(-c3ccc(Oc4ccncc4)cc3)c3cncc(Cl)c32)C1: 2.35
- C=CC(=O)N1CCC[C@@H](n2nc(-c3ccc(C(=O)Nc4ccccn4)cc3)c3c(N)nccc32)C1: 3.03
- CC#CC(=O)N1CC[C@H](n2nc(-c3ccc(Oc4ccncc4)cc3)c3cncc(Cl)c32)C1: 3.45

For the next question, use this compound.
Enquiry: Please give the documented CC50 (HepG2)/IC50 (Mino) of "C=CC(=O)N1CC(Cn2nc(-c3ccc(Oc4ccncc4)cc3)c3cncc(Cl)c32)C1"
Return: 2.13

---

experiment: Stability in human blood plasma; details: 10 μM in pooled human blood plasma, incubated 4 hours at 37° C.
Output YES for Amount of substance in the sample, % (stability in human blood plasma) not less than 90%; output NO otherwise.

• C=CC(=O)N1CCC[C@H]1Cn1nc(-c2ccc(Oc3ccncc3)cc2)c2cncc(Cl)c21 = NO
• C=CC(=O)N1CCC[C@@H](n2nc(-c3ccc(C(=O)Nc4ccccn4)cc3)c3c(N)ncc(C#N)c32)C1 = NO
• CC#CC(=O)N1CC(Cn2nc(-c3ccc(Oc4ccncc4)cc3)c3cncc(Cl)c32)C1 = YES
• C=CC(=O)N1CCC[C@@H](n2nc(-c3ccc(Oc4cncc(C(N)=O)c4)cc3)c3cncc(Cl)c32)C1 = YES
• C=CC(=O)N1CCC[C@@H](n2nc(-c3ccc(C(=O)Nc4cc(C(F)(F)CCC)ccn4)cc3)c3c(N)ncc(Cl)c32)C1 = YES
• C=CC(=O)N1CCC[C@@H](n2nc(-c3ccc(C(=O)Nc4ccc(F)cn4)cc3)c3c(N)ncc(Cl)c32)C1 = YES
• C=CC(=O)N1CCC[C@@H](n2nc(-c3ccc(Oc4ccncc4)cc3)c3c(N)ncc(OC)c32)C1 = NO
• CC#CC(=O)N1CC(Cn2nc(-c3ccc(C(=O)Nc4ccccn4)cc3)c3cncc(Cl)c32)C1 = YES

Enquiry: Please tell me: is the compound "C=CC(=O)N1CCC[C@@H](n2nc(-c3cnc(C(=O)Nc4cc(C(F)(F)CCC)ccn4)nc3)c3cncc(Cl)c32)C1" at or over 90% in terms of Amount of substance in the sample, % (stability in human blood plasma)?
Return: YES

---

The reader will find reported pIC50 values listed item by item below.
test system: Z-138 (mantle cell lymphoma); experiment: Antiproliferative activity, Z-138 cells (Alamar Blue); assay type: cell-based; conditions: Homo sapiens, Table 10, 72 h, average of several tests
// scale note: pIC50 = -log10(conc_M); give the bare number

* C=CC(=O)N1CCC[C@@H](n2nc(-c3ccc(C(=O)Nc4cc(C(F)(F)CCC)ccn4)cc3)c3cncc(Cl)c32)C1 | 4.83
* C=CC(=O)N1CCC[C@@H](n2nc(-c3ccc(Oc4ccncc4)cc3)c3cc(O)cc(C#N)c32)C1 | 4.59
* C=CC(=O)N1CCC[C@@H](n2nc(-c3ccc(C(=O)Nc4cc(C(F)(F)F)ccn4)cc3)c3c(N)ncc(Cl)c32)C1 | 5.35
* CC#CC(=O)N1CC[C@@H](n2nc(-c3ccc(Oc4ccncc4)cc3)c3cncc(Cl)c32)C1 | 4.78
* C=CC(=O)N1CC(n2nc(-c3ccc(Oc4ccncc4)cc3)c3cncc(Cl)c32)C1 | 5.37

// next item, pIC50 requested
Enquiry: Please supply the value of reported pIC50 for the item "C=CC(=O)N1CCC[C@@H](n2nc(-c3ccc(-n4ccc(=O)cc4)cc3)c3cc(O)cc(C#N)c32)C1"
Return: 4.44

---

assay: Permeability through the monolayer of Caco-2 cells; format: in vitro ADME; settings: human, read-out: efflux (Papp B-A/Papp A-B)
metric.name: efflux ratio at 2 h, 10 μM

Here is how some molecules turned out for efflux ratio at 2 h, 10 μM.
* C=CC(=O)N1CCC[C@@H](n2nc(-c3cnc(C(=O)Nc4ccccn4)nc3)c3cncc(Cl)c32)C1 | 1.14
* C=CC(=O)N1CCC[C@@H](n2nc(-c3ccc(C(=O)Nc4ccc(F)cn4)cc3)c3c(N)ncc(Cl)c32)C1 | 0.5
* C=CC(=O)N1CCC[C@@H](n2nc(-c3ccc(C(=O)Nc4ccccn4)cc3)c3c(N)ncc(C#N)c32)C1 | 1.1

Enquiry: For "C=CC(=O)N1CCC[C@@H](n2nc(-c3ccc(Oc4ccncc4C(N)=O)cc3)c3cncc(Cl)c32)C1" , write its efflux ratio at 2 h, 10 μM.
Return: 0.9

---

tested on: Z-138 (mantle cell lymphoma); test: Antiproliferative activity, Z-138 cells (Alamar Blue); assay type: cell-based; conditions: Homo sapiens, Table 10, 72 h, average of several tests
metric.name: IC50 (µM)
Give the value, in units of µM, as a plain number.

// known answers, use as guide
- C=CC(=O)N1CCC[C@@H](n2nc(-c3ccc(C(=O)Nc4ccccn4)cc3)c3c(N)ncc(C#N)c32)C1: 16.8
- C=CC(=O)N1CCC[C@@H](n2nc(-c3ccc(-n4ccc(=O)cc4)cc3)c3cc(N)c(C)nc32)C1: 25.5
- C=CC(=O)N1CCC[C@@H](n2nc(-c3cnc(C(=O)Nc4cccc(F)n4)nc3)c3cncc(Cl)c32)C1: 30.1
- C=CC(=O)N1CC[C@@H](n2nc(-c3ccc(Oc4ccncc4)cc3)c3cncc(Cl)c32)C1: 14.9

The record that follows has no IC50 shown yet.
Enquiry: Output IC50 of "C=CC(=O)N1CC(Cn2nc(-c3ccc(Oc4ccncc4)cc3)c3cncc(Cl)c32)C1"
Return: 14.3

---

experiment: Chemical stability in artificial gastric fluid (SGF without enzymes); settings: 10 μM in SGF without enzymes, pH=1.4, 37° C.
Parameter: Amount of substance in the sample in % (chemical stability). Scope: all listed entries.
Note: unit % is implicit; provide only the numeric part.

Check out these entries, answers already filled in.
• CC#CC(=O)N1CCC[C@@H](n2nc(-c3ccc(C(=O)Nc4ccccn4)cc3)c3cncc(Cl)c32)C1 [BCD-BTK-289] = 100
• C=CC(=O)N1CCC[C@@H](n2nc(-c3ccc(Oc4cccnc4C#N)cc3)c3c(N)ncc(Cl)c32)C1 [BCD-BTK-236] = 100
• C=CC(=O)N1CCC[C@@H](n2nc(-c3ccc(C(=O)Nc4ccccn4)cc3)c3cncc(Cl)c32)C1 [BCD-BTK -201] = 100
• C=CC(=O)N1CCC[C@@H](n2nc(-c3cnc(C(=O)Nc4ccccn4)nc3)c3cncc(Cl)c32)C1 [BCD-BTK-229] = 99.8
• C=CC(=O)N1CCC[C@@H](n2nc(-c3ccc(Oc4cccnc4C(N)=O)cc3)c3cncc(Cl)c32)C1 [BCD-BTK-220] = 100
• CC#CC(=O)N1CCC[C@@H](n2nc(-c3ccc(C(=O)Nc4ccccn4)cc3)c3c(N)ncc(Cl)c32)C1 [BCD-BTK - 295] = 89.5
• C=CC(=O)N1CC(n2nc(-c3ccc(Oc4ccncc4)cc3)c3cncc(Cl)c32)C1 [BCD-BTK - 282] = 100
• C=CC(=O)N1CCC[C@@H](n2nc(-c3ccc(C(=O)Nc4ccc(F)cn4)cc3)c3c(N)ncc(Cl)c32)C1 [BCD-BTK -237] = 100

Enquiry: Give Amount of substance in the sample in % (chemical stability) for the following molecule: C=CC(=O)Oc1cc(C#N)c2c(c1)c(-c1ccc(-n3ccc(=O)cc3)cc1)nn2[C@@H]1CCCN(C(=O)C=C)C1 [BCD-BTK-118]
Return: 95.4

Enquiry: Specify measured Amount of substance in the sample in % (chemical stability) for C=CC(=O)N1CCC[C@@H](n2nc(-c3ccc(C(=O)Nc4cccc(F)n4)cc3)c3c(N)ncc(Cl)c32)C1 [BCD-BTK - 250] .
Return: 100

Enquiry: Return value of Amount of substance in the sample in % (chemical stability) for input C=CC(=O)N1CCC[C@@H](n2nc(-c3ccc(Oc4ccncc4C(N)=O)cc3)c3cncc(F)c32)C1 [BCD-BTK-246] , no commentary.
Return: 100

Enquiry: Identify measured Amount of substance in the sample in % (chemical stability) associated with CC#CC(=O)N1CCC[C@H]1Cn1nc(-c2ccc(Oc3ccncc3)cc2)c2cncc(Cl)c21 [BCD-BTK-259]
Return: 100

Enquiry: Given the molecule CC#CC(=O)N1CCC[C@@H](Cn2nc(-c3ccc(C(=O)Nc4ccccn4)cc3)c3cncc(Cl)c32)C1 [BCD-BTK-278] , write its reported Amount of substance in the sample in % (chemical stability).
Return: 100

Enquiry: Return the recorded Amount of substance in the sample in % (chemical stability) value; entry: C=CC(=O)Oc1cnc2c(c(-c3ccc(-n4ccc(=O)cc4)cc3)nn2[C@@H]2CCCN(C(=O)C=C)C2)c1Cl [BCD-BTK-136]
Return: 89.9
